# Study System: Sodium-dependent serotonin transporter (Rattus norvegicus)
# Sequence (P31652 whole entry): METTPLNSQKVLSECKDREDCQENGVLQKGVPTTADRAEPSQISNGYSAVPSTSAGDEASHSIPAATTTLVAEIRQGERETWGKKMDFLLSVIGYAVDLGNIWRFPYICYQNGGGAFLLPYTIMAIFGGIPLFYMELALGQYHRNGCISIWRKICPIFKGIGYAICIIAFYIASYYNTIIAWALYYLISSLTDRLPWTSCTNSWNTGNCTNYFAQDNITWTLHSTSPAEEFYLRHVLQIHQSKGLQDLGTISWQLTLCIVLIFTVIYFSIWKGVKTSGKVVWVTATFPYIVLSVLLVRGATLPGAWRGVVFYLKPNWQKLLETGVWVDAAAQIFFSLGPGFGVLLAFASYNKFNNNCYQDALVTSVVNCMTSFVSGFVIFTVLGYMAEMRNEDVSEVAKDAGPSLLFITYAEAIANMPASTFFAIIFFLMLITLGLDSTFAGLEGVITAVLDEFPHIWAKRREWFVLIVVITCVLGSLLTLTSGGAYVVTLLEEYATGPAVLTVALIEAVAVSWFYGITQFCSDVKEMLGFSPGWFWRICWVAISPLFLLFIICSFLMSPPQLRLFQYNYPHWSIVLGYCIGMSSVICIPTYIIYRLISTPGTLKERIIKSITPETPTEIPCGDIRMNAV
# Test Method Notes: Binding affinity on Serotonin transporter was determined in rat

| Query Smiles | Ki (nM) |
| --- | --- |
| CN1CCC(Sc2c[nH]c3ccc(Cl)cc23)CC1 | 3.01 |
